Every entry's value here was drawn from patent US12459941B2.

Could you please report measured IC50 for the items listed next?
Molecular target: IRAK4 (Homo sapiens)
Sequence (Q9NWZ3 1-460): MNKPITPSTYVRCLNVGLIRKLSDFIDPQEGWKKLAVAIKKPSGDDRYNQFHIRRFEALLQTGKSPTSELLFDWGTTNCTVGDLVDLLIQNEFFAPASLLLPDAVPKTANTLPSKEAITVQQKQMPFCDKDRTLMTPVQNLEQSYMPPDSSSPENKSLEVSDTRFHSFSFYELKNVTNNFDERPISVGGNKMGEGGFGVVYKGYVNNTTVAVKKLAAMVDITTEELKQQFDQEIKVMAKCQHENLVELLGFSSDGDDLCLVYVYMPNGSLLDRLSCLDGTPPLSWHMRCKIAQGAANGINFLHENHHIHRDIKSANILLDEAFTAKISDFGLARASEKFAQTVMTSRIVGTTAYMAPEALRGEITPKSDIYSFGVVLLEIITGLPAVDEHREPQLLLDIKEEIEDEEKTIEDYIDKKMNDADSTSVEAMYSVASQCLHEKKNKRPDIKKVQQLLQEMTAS
Answer with the value and then the unit.

// query # value lookup — system IRAK4 (Homo sapiens), readout IC50, item NC(=O)Cc1c[nH]c(=O)c2cc3ccnc(OC[C@@H]4CCC(=O)N4)c3cc12 [I-41]
// result 2.54 µM

// query # value lookup — system IRAK4 (Homo sapiens), readout IC50, item CS(=O)(=O)c1c[nH]c(=O)c2cc3ccnc(OC[C@@H]4CCC(=O)N4)c3cc12 [I-48]
// result 13.8 µM

// query # value lookup — system IRAK4 (Homo sapiens), readout IC50, item CC(C)c1c[nH]c(=O)c2cc3ccnc(OC[C@@H]4CCC(=O)N4)c3cc12 [I-15]
// result 0.0062 µM
